# experimental-system: SRSF1 RRM1+2 (ASF/SF2) (UniProt Q07955 1-196)
# Sequence (Q07955 1-196): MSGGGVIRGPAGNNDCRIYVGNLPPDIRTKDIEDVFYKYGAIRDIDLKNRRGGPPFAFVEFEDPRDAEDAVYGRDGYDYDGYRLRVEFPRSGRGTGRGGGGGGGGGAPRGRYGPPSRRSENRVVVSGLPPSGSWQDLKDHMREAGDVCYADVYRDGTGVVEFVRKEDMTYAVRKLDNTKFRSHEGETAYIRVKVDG
# method: fluorescence anisotropy
reported-endpoint: Kd (nM)
Express your answer in nM, writing the number without its unit.

Task: Consider the binder AAAUCAGAGGAAAA (ssRNA) [SRSF1 canonical motif RNA] and give its recorded Kd.
Output: 21

Numbers sourced from paper PMC11983130.
